biological target: XIAP-BIR3 (Homo sapiens, UniProt P98170); construct: 40 nM of XIAP-BIR3 for 15 min at RT; assay: XIAP BIR-3 fluorescence polarization binding assay; conditions: Example 4 series; read-out: KD Range
Sequence (P98170 241-356 limits assumed): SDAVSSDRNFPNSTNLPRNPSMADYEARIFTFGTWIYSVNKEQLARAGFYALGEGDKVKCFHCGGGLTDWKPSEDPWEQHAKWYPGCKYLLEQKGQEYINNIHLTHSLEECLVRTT
EXPERIMENTAL_ENDPOINT: Kd

[[record]]
compound = "CN[C@@H](C)C(=O)N[C@H](C(=O)N1CCC[C@H]1Cc1c(-c2[nH]c3cc(F)ccc3c2C[C@@H]2CCCN2C(=O)[C@@H](NC(=O)[C@H](C)NC)C2CCCCC2)[nH]c2cc(F)ccc12)C1CCCCC1"
assay_system = "XIAP-BIR3 (Homo sapiens, UniProt P98170)"
experimental_endpoint = "Kd"
obs_value = "< 100 nM"

[[record]]
compound = "CN[C@@H](C)C(=O)N[C@H](C(=O)N1CCC[C@H]1Cc1c(-c2[nH]c3ccc(F)cc3c2C[C@@H]2CCCN2C(=O)[C@@H](NC(=O)[C@H](C)NC)C2CCCCC2)[nH]c2ccc(F)cc12)C1CCCCC1"
assay_system = "XIAP-BIR3 (Homo sapiens, UniProt P98170)"
experimental_endpoint = "Kd"
obs_value = "< 100 nM"

[[record]]
compound = "CNC(C)C(=O)NC(C(=O)N1CC(O)CC1Cc1c(-c2[nH]c3cc(F)ccc3c2CC2CC(O)CN2C(=O)C(NC(=O)C(C)NC)C(C)OC)[nH]c2cc(F)ccc12)C(C)OC (centres unmarked)"
assay_system = "XIAP-BIR3 (Homo sapiens, UniProt P98170)"
experimental_endpoint = "Kd"
obs_value = "< 100 nM"

[[record]]
compound = "CNC(C)C(=O)NC(C(=O)N1CCCC1Cc1c(-c2[nH]c3cc(F)ccc3c2CC2CCCN2C(=O)C(NC(=O)C(C)NC)C(C)O)[nH]c2cc(F)ccc12)C(C)O (centres unmarked) [Entry 78]"
assay_system = "XIAP-BIR3 (Homo sapiens, UniProt P98170)"
experimental_endpoint = "Kd"
obs_value = "< 100 nM"

[[record]]
compound = "CCC(C)[C@H](NC(=O)[C@H](C)NC)C(=O)N1CCC[C@H]1Cc1c(-c2[nH]c3ccc(F)cc3c2C[C@@H]2CCCN2C(=O)[C@@H](NC(=O)[C@H](C)NC)C(C)CC)[nH]c2ccc(F)cc12 (some centres unmarked)"
assay_system = "XIAP-BIR3 (Homo sapiens, UniProt P98170)"
experimental_endpoint = "Kd"
obs_value = "< 100 nM"

[[record]]
compound = "CN[C@@H](C)C(=O)N[C@H](C(=O)N1CCC[C@H]1Cc1c(-c2[nH]c3cc(F)ccc3c2C[C@@H]2CCCN2C(=O)[C@@H](NC(=O)[C@H](C)NC)C(C)(C)C)[nH]c2cc(F)ccc12)C(C)(C)C"
assay_system = "XIAP-BIR3 (Homo sapiens, UniProt P98170)"
experimental_endpoint = "Kd"
obs_value = "< 100 nM"

[[record]]
compound = "CNC(C)C(=O)NC(C(=O)N1CC(O)CC1Cc1c(-c2[nH]c3cc(F)ccc3c2CC2CC(O)CN2C(=O)C(NC(=O)C(C)NC)C(C)O)[nH]c2cc(F)ccc12)C(C)O (centres unmarked) [Entry 90]"
assay_system = "XIAP-BIR3 (Homo sapiens, UniProt P98170)"
experimental_endpoint = "Kd"
obs_value = "< 100 nM"

[[record]]
compound = "CN[C@@H](C)C(=O)N[C@H](C(=O)N1CCC[C@H]1Cc1c(-c2[nH]c3cc(F)ccc3c2C[C@@H]2CCCN2C(=O)[C@@H](NC(=O)[C@H](C)N)C(C)C)[nH]c2cc(F)ccc12)C(C)C"
assay_system = "XIAP-BIR3 (Homo sapiens, UniProt P98170)"
experimental_endpoint = "Kd"
obs_value = "< 100 nM"

[[record]]
compound = "CNC(C)C(=O)NC(C(=O)N1CCCC1Cc1c(-c2[nH]c3cc(F)ccc3c2CC2CCCN2C(=O)C(NC(=O)C(C)NC)C(C)O)[nH]c2cc(F)ccc12)C(C)O (centres unmarked) [Entry 72]"
assay_system = "XIAP-BIR3 (Homo sapiens, UniProt P98170)"
experimental_endpoint = "Kd"
obs_value = "< 100 nM"

[[record]]
compound = "CNC(C)C(=O)NC(C(=O)N1CC(O)CC1Cc1c(-c2[nH]c3cc(F)ccc3c2CC2CC(O)CN2C(=O)C(NC(=O)C(C)NC)C(C)O)[nH]c2cc(F)ccc12)C(C)O (centres unmarked) [Entry 86]"
assay_system = "XIAP-BIR3 (Homo sapiens, UniProt P98170)"
experimental_endpoint = "Kd"
obs_value = "< 100 nM"

[[record]]
compound = "CN[C@@H](C)C(=O)NCC(=O)N1CCC[C@H]1Cc1c(-c2[nH]c3cc(F)ccc3c2C[C@@H]2CCCN2C(=O)CNC(=O)[C@H](C)NC)[nH]c2cc(F)ccc12"
assay_system = "XIAP-BIR3 (Homo sapiens, UniProt P98170)"
experimental_endpoint = "Kd"
obs_value = "100 to 1000 nM"

[[record]]
compound = "CN[C@@H](C)C(=O)N[C@H](C(=O)N1CCC[C@H]1Cc1c(-c2[nH]c3ccc(F)cc3c2C[C@@H]2CCCN2C(=O)[C@@H](NC(=O)[C@H](C)NC)C(C)C)[nH]c2ccc(F)cc12)C(C)C"
assay_system = "XIAP-BIR3 (Homo sapiens, UniProt P98170)"
experimental_endpoint = "Kd"
obs_value = "< 100 nM"

[[record]]
compound = "CN[C@@H](C)C(=O)N[C@@H](C)C(=O)N1CCC[C@H]1Cc1c(-c2[nH]c3cc(F)ccc3c2C[C@@H]2CCCN2C(=O)[C@H](C)NC(=O)[C@H](C)NC)[nH]c2cc(F)ccc12"
assay_system = "XIAP-BIR3 (Homo sapiens, UniProt P98170)"
experimental_endpoint = "Kd"
obs_value = "100 to 1000 nM"

[[record]]
compound = "CC[C@H](NC(=O)[C@H](C)NC)C(=O)N1CCC[C@H]1Cc1c(-c2[nH]c3cc(F)ccc3c2C[C@@H]2CCCN2C(=O)[C@H](CC)NC(=O)[C@H](C)NC)[nH]c2cc(F)ccc12"
assay_system = "XIAP-BIR3 (Homo sapiens, UniProt P98170)"
experimental_endpoint = "Kd"
obs_value = "< 100 nM"

[[record]]
compound = "CN[C@@H](C)C(=O)N[C@H](C(=O)N1CCC[C@H]1Cc1c(-c2[nH]c3cc(F)ccc3c2C[C@@H]2CCCN2C(=O)[C@@H](NC(=O)[C@H](C)NC)C(C)C)[nH]c2cc(F)ccc12)C(C)C"
assay_system = "XIAP-BIR3 (Homo sapiens, UniProt P98170)"
experimental_endpoint = "Kd"
obs_value = "< 100 nM"

[[record]]
compound = "CN[C@H](C)C(=O)N[C@H](C(=O)N1CCC[C@H]1Cc1c(-c2[nH]c3cc(F)ccc3c2C[C@@H]2CCCN2C(=O)[C@@H](NC(=O)[C@@H](C)NC)C(C)C)[nH]c2cc(F)ccc12)C(C)C"
assay_system = "XIAP-BIR3 (Homo sapiens, UniProt P98170)"
experimental_endpoint = "Kd"
obs_value = "100 to 1000 nM"

[[record]]
compound = "CNC(C)C(=O)NC(C(=O)N1CCCC1Cc1c(-c2[nH]c3ccc(F)cc3c2CC2CCCN2C(=O)C(NC(=O)C(C)NC)C(C)O)[nH]c2ccc(F)cc12)C(C)O (centres unmarked)"
assay_system = "XIAP-BIR3 (Homo sapiens, UniProt P98170)"
experimental_endpoint = "Kd"
obs_value = "< 100 nM"

[[record]]
compound = "CNC(C)C(=O)NC(C(=O)N1CC(O)CC1Cc1c(-c2[nH]c3cc(F)ccc3c2CC2CC(O)CN2C(=O)C(NC(=O)C(C)NC)C(C)OC(C)(C)C)[nH]c2cc(F)ccc12)C(C)OC(C)(C)C (centres unmarked)"
assay_system = "XIAP-BIR3 (Homo sapiens, UniProt P98170)"
experimental_endpoint = "Kd"
obs_value = "100 to 1000 nM"

[[record]]
compound = "CC(C)[C@H](NC(=O)CN)C(=O)N1CCC[C@H]1Cc1c(-c2[nH]c3cc(F)ccc3c2C[C@@H]2CCCN2C(=O)[C@@H](NC(=O)CN)C(C)C)[nH]c2cc(F)ccc12"
assay_system = "XIAP-BIR3 (Homo sapiens, UniProt P98170)"
experimental_endpoint = "Kd"
obs_value = "100 to 1000 nM"

[[record]]
compound = "CN[C@@H](C)C(=O)N[C@H](C(=O)N1C[C@@H](O)C[C@H]1Cc1c(-c2[nH]c3cc(F)ccc3c2C[C@@H]2C[C@H](O)CN2C(=O)[C@@H](NC(=O)[C@H](C)NC)C(C)C)[nH]c2cc(F)ccc12)C(C)C"
assay_system = "XIAP-BIR3 (Homo sapiens, UniProt P98170)"
experimental_endpoint = "Kd"
obs_value = "< 100 nM"


----------
target: XIAP-BIR3 (Homo sapiens, UniProt P98170); construct: 40 nM of XIAP-BIR3 for 15 min at RT; test: XIAP BIR-3 fluorescence polarization binding assay; conditions: 5 nM AbuRPF-K(5-Fam)-NH2, 40 nM XIAP-BIR3, 15 min RT, pH 7.5; read-out: KD Range
pKd: −log10 of the molar value.
EXPERIMENTAL_ENDPOINT: pKd

[[record]]
compound = "C[C@H](N)C(=O)N[C@H](C(=O)N1CCC[C@H]1Cc1c(-c2ccc(-c3[nH]c4cc(F)ccc4c3C[C@@H]3CCCN3C(=O)[C@@H](NC(=O)[C@H](C)N)C3CCCCC3)cc2)[nH]c2cc(F)ccc12)C1CCCCC1 [Entry 19]"
assay_system = "XIAP-BIR3 (Homo sapiens, UniProt P98170)"
obs_value = "> 7.00"

[[record]]
compound = "CN[C@@H](C)C(=O)N[C@H](C(=O)N1CCC[C@H]1Cc1c(-c2ccc(-c3c(C[C@@H]4CCCN4C(=O)[C@@H](NC(=O)[C@H](C)NC)[C@@H](C)O)c4ccc(F)cc4n3C)cc2)n(C)c2cc(F)ccc12)[C@@H](C)O"
assay_system = "XIAP-BIR3 (Homo sapiens, UniProt P98170)"
obs_value = "> 7.00"


Reference source for all entries: patent US9187490B2
